MEASURED_TARGET: T1, Dpo1 exo- (SsoDpo1, B-family DNA polymerase) (Sulfolobus solfataricus, UniProt P26811 1-882, D231A;D318A)
T1 sequence: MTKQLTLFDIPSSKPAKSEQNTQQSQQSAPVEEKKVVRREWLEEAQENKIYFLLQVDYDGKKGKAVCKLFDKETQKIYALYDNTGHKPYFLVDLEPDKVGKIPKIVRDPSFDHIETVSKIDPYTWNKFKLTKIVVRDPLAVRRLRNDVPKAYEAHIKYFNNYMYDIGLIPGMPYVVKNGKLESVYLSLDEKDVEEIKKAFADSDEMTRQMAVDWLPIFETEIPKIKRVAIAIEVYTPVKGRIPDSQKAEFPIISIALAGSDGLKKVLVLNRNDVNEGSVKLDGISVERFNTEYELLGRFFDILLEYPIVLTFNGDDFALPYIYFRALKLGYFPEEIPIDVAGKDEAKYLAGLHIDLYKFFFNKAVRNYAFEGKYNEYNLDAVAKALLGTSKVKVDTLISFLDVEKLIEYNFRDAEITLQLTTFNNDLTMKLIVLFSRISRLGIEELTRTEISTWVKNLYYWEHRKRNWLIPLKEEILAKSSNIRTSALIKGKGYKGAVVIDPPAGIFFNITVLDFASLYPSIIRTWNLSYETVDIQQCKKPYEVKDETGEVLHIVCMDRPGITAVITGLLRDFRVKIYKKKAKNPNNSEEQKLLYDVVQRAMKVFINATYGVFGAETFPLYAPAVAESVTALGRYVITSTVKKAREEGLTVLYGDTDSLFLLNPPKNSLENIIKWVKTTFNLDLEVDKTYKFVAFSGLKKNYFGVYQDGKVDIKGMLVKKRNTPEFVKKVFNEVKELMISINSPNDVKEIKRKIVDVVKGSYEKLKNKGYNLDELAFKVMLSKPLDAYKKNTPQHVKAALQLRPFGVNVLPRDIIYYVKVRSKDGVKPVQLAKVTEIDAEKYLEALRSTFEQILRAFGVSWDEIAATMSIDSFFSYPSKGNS
TEST_DETAILS: fluorescence anisotropy
MEASURED_METRIC: pKd
When answering, recall that pKd equals minus log10 of the concentration in mol/L, and write that number alone.

Just so you know, measured pKd for TTTTTTTTTTCCCGGGCCGGCGTTTCGCCGGCCCGGG (structured_DNA) [37-nt hairpin primer-template, 5'-Cy3] came out at 6.96
